Where do these numbers come from? They come from paper PMC7660650.

Target: Gal4-HNF4α (human HNF4α LBD) (Homo sapiens, UniProt P41235)
Construct: uniprot entry: P41235-1, residues 142-377; expressed in transfected cells; host or cells: HEK293T
Sequence (P41235 142-377): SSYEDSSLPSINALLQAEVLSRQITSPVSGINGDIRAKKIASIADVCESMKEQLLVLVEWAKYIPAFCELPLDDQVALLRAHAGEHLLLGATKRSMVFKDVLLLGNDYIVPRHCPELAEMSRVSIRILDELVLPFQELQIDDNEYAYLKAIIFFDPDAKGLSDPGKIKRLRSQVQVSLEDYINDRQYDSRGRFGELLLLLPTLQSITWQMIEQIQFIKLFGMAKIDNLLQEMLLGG
Test: Hybrid Gal4-HNF4α reporter gene assay in transiently transfected HEK293T cells
Assay type: cell-based
Settings: Table S1, primary screening, 50 µM
Here, each record is paired with measured HNF4a-screening_activity_(mean_of_n=2) data.
The answer should be written as a number, with no unit following it.

Some molecules with known HNF4a-screening_activity_(mean_of_n=2) results, for comparison:
molecule | HNF4a-screening_activity_(mean_of_n=2)
CS(=O)(=O)c1ccc(CO)cc1 [Prestw-Frag-2234, CS(=O)(=O)c1ccc(CO)cc1] | 0.954
c1nc(NC2CC2)c2nc[nH]c2n1 [Prestw-Frag-3360, C1CC1Nc1ncnc2[nH]cnc12] | 1.055
NC(=O)c1ccc2[nH]ccc2c1 [Prestw-Frag-3336, NC(=O)c1ccc2[nH]ccc2c1] | 1.118

Moving on to another molecule below.
Report HNF4a-screening_activity_(mean_of_n=2) for CC(C)(C)NCC(O)COc1ccccc1C1CCCC1 (stereo not shown) [Prestw-Frag-0674, CC(C)(C)NCC(O)COc1ccccc1C1CCCC1]
1.434
